molecular target: Delta-type opioid receptor (Homo sapiens, UniProt P41143); experiment: Agonist activity at human delta opioid receptor expressed in CHO cell membranes assessed as stimulation of [35S]GTPgammaS binding incubated for 2 hrs by scintillation counting method relative to SNC80; type: functional; conditions: Membrane, filed as agonist
Sequence (P41143 whole entry): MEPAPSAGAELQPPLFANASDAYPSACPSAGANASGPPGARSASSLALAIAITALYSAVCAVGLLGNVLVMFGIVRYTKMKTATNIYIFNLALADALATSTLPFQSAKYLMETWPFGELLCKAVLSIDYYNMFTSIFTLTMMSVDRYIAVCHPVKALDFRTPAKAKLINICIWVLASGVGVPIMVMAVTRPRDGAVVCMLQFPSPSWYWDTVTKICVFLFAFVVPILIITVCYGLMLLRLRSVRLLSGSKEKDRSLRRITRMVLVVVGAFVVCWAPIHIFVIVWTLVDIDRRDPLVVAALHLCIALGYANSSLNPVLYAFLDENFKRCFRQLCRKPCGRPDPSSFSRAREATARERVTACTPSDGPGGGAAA
Property Measured: Emax (%)
Please reply with the bare figure in % and do not write the unit itself.

Guide cases for Emax, answers given:
{"Molecule Smiles": "O=C(N[C@@H]1C[C@]23CCN(CC4CC4)[C@H](Cc4ccc(O)cc42)[C@]32CC[C@@H]1O2)c1ccccc1", "Reported": 106}
{"Molecule Smiles": "O=C(Cc1ccccc1)N[C@@H]1C[C@]23CCN(CC4CC4)[C@H](Cc4ccc(O)cc42)[C@]32CC[C@@H]1O2", "Reported": 85.3}

Exercise: If you can, please state the reported Emax value of "O=C(N[C@H]1C[C@]23CCN(CC4CC4)[C@H](Cc4ccc(O)cc42)[C@]32CC[C@@H]1O2)c1ccccc1" .
Key: 97.4

---

target: Delta-type opioid receptor (Homo sapiens, UniProt P41143); test: Agonist activity at human delta opioid receptor expressed in CHO cell membranes assessed as stimulation of [35S]GTPgammaS binding incubated for 2 hrs by scintillation counting method
In this section, each of the compounds is paired with its reported log10 EC50.
For clarity, the numbers are log10 values of EC50 expressed in µM.

Guide cases for log10 EC50, answers given:
{"Molecule Smiles": "O=C(N[C@@H]1C[C@]23CCN(CC4CC4)[C@H](Cc4ccc(O)cc42)[C@]32CC[C@@H]1O2)c1ccccc1", "Tgt": "Delta-type opioid receptor (Homo sapiens, UniProt P41143)", "log10 EC50": -2.54}
{"Molecule Smiles": "CN(C(=O)c1ccccc1)[C@@H]1C[C@]23CCN(CC4CC4)[C@H](Cc4ccc(O)cc42)[C@]32CC[C@@H]1O2", "Tgt": "Delta-type opioid receptor (Homo sapiens, UniProt P41143)", "log10 EC50": -3.77}
{"Molecule Smiles": "CN(C(=O)Cc1ccccc1)[C@@H]1C[C@]23CCN(CC4CC4)[C@H](Cc4ccc(O)cc42)[C@]32CC[C@@H]1O2", "Tgt": "Delta-type opioid receptor (Homo sapiens, UniProt P41143)", "log10 EC50": -1.36}
{"Molecule Smiles": "O=C(N[C@H]1C[C@]23CCN(CC4CC4)[C@H](Cc4ccc(O)cc42)[C@]32CC[C@@H]1O2)c1ccccc1", "Tgt": "Delta-type opioid receptor (Homo sapiens, UniProt P41143)", "log10 EC50": -1.28}
{"Molecule Smiles": "O=C(Cc1ccccc1)N[C@@H]1C[C@]23CCN(CC4CC4)[C@H](Cc4ccc(O)cc42)[C@]32CC[C@@H]1O2", "Tgt": "Delta-type opioid receptor (Homo sapiens, UniProt P41143)", "log10 EC50": -2.22}

Exercise: Hi! What's the reported log10 EC50 for "O=C(Cc1ccccc1)N[C@H]1C[C@]23CCN(CC4CC4)[C@H](Cc4ccc(O)cc42)[C@]32CC[C@@H]1O2" on Delta-type opioid receptor (Homo sapiens, UniProt P41143)?
Key: -2.42

Exercise: Further, for "O=C(CCc1ccccc1)N[C@H]1C[C@]23CCN(CC4CC4)[C@H](Cc4ccc(O)cc42)[C@]32CC[C@@H]1O2" ?
Key: -1.26

Exercise: Further, for "O=C(CCc1ccccc1)N[C@@H]1C[C@]23CCN(CC4CC4)[C@H](Cc4ccc(O)cc42)[C@]32CC[C@@H]1O2" ?
Key: -0.95

Exercise: Further, for "CN(C(=O)CCc1ccccc1)[C@@H]1C[C@]23CCN(CC4CC4)[C@H](Cc4ccc(O)cc42)[C@]32CC[C@@H]1O2" ?
Key: -1.67

---

target: Delta-type opioid receptor (Homo sapiens); test: Agonist activity at human delta opioid receptor expressed in CHO cell membranes assessed as stimulation of [35S]GTPgammaS binding incubated for 2 hrs by scintillation counting method relative to SNC80; type: functional; details: Membrane, filed as agonist
Property Measured: Emax
Report the figure along with its unit, number first.

{"Molecule Smiles": "O=C(CCc1ccccc1)N[C@H]1C[C@]23CCN(CC4CC4)[C@H](Cc4ccc(O)cc42)[C@]32CC[C@@H]1O2", "Emax": "111%"}

Exercise: If you can, please state the reported Emax value of "CN(C(=O)CCc1ccccc1)[C@@H]1C[C@]23CCN(CC4CC4)[C@H](Cc4ccc(O)cc42)[C@]32CC[C@@H]1O2" .
Key: 85.2%

Exercise: Further, for "O=C(CCc1ccccc1)N[C@@H]1C[C@]23CCN(CC4CC4)[C@H](Cc4ccc(O)cc42)[C@]32CC[C@@H]1O2" ?
Key: 104%

Exercise: Further, for "O=C(Cc1ccccc1)N[C@H]1C[C@]23CCN(CC4CC4)[C@H](Cc4ccc(O)cc42)[C@]32CC[C@@H]1O2" ?
Key: 101%

---

target: Kappa-type opioid receptor (Homo sapiens); assay: Agonist activity at human kappa opioid receptor expressed in CHO cell membranes assessed as stimulation of [35S]GTPgammaS binding incubated for 2 hrs by scintillation counting method relative to U-69593; format: functional; conditions: Membrane, filed as partial agonist
In this section, each of the compounds is paired with its reported Emax.
Please reply with the bare figure in % and do not write the unit itself.

Guide cases for Emax, answers given:
{"Molecule Smiles": "CN(C(=O)Cc1ccccc1)[C@@H]1C[C@]23CCN(CC4CC4)[C@H](Cc4ccc(O)cc42)[C@]32CC[C@@H]1O2", "Reported": 88.6}
{"Molecule Smiles": "O=C(N[C@@H]1C[C@]23CCN(CC4CC4)[C@H](Cc4ccc(O)cc42)[C@]32CC[C@@H]1O2)c1ccccc1", "Reported": 87.7}
{"Molecule Smiles": "CN(C(=O)CCc1ccccc1)[C@@H]1C[C@]23CCN(CC4CC4)[C@H](Cc4ccc(O)cc42)[C@]32CC[C@@H]1O2", "Reported": 58.5}
{"Molecule Smiles": "O=C(CCc1ccccc1)N[C@@H]1C[C@]23CCN(CC4CC4)[C@H](Cc4ccc(O)cc42)[C@]32CC[C@@H]1O2", "Reported": 75.4}
{"Molecule Smiles": "O=C(Cc1ccccc1)N[C@@H]1C[C@]23CCN(CC4CC4)[C@H](Cc4ccc(O)cc42)[C@]32CC[C@@H]1O2", "Reported": 68.4}

Now for another entry.
Exercise: Hi! What's the reported Emax for "O=C(CCc1ccccc1)N[C@H]1C[C@]23CCN(CC4CC4)[C@H](Cc4ccc(O)cc42)[C@]32CC[C@@H]1O2" on Kappa-type opioid receptor (Homo sapiens)?
Key: 50.3

---

biological target: Kappa-type opioid receptor (Homo sapiens, UniProt P41145); experiment: Displacement of [3H]-U-69593 from recombinant human KOR expressed in CHO cell membranes measured after 2 hrs by microbeta scintillation counting method
Sequence (P41145 whole entry): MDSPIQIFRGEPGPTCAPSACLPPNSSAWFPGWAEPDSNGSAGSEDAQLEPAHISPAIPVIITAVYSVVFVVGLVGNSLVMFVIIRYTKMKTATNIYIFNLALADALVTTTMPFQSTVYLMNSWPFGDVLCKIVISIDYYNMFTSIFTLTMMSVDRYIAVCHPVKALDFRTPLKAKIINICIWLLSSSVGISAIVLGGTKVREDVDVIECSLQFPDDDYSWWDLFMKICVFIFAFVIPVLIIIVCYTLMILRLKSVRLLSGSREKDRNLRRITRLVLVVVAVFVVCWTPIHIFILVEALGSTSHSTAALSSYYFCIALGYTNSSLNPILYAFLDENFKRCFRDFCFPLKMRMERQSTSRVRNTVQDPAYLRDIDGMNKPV
Property Measured: pKi
Scale: negative log10 of molar concentration, which is what pKi denotes.

Guide cases for pKi, answers given:
{"Molecule Smiles": "O=C(N[C@@H]1C[C@]23CCN(CC4CC4)[C@H](Cc4ccc(O)cc42)[C@]32CC[C@@H]1O2)c1ccccc1", "Tgt": "Kappa-type opioid receptor (Homo sapiens, UniProt P41145)", "pKi": 9.85}
{"Molecule Smiles": "O=C(N[C@H]1C[C@]23CCN(CC4CC4)[C@H](Cc4ccc(O)cc42)[C@]32CC[C@@H]1O2)c1ccccc1", "Tgt": "Kappa-type opioid receptor (Homo sapiens, UniProt P41145)", "pKi": 7.97}
{"Molecule Smiles": "O=C(Cc1ccccc1)N[C@H]1C[C@]23CCN(CC4CC4)[C@H](Cc4ccc(O)cc42)[C@]32CC[C@@H]1O2", "Tgt": "Kappa-type opioid receptor (Homo sapiens, UniProt P41145)", "pKi": 8.77}

Now for another entry.
Exercise: Hi! What's the reported pKi for "O=C(CCc1ccccc1)N[C@H]1C[C@]23CCN(CC4CC4)[C@H](Cc4ccc(O)cc42)[C@]32CC[C@@H]1O2" on Kappa-type opioid receptor (Homo sapiens, UniProt P41145)?
Key: 8.63

---

target: Mu-type opioid receptor (Homo sapiens); experiment: Agonist activity at human mu opioid receptor expressed in CHO cell membranes assessed as stimulation of [35S]GTPgammaS binding incubated for 2 hrs by scintillation counting method; design: species or system Membrane
Sequence (P35372 whole entry): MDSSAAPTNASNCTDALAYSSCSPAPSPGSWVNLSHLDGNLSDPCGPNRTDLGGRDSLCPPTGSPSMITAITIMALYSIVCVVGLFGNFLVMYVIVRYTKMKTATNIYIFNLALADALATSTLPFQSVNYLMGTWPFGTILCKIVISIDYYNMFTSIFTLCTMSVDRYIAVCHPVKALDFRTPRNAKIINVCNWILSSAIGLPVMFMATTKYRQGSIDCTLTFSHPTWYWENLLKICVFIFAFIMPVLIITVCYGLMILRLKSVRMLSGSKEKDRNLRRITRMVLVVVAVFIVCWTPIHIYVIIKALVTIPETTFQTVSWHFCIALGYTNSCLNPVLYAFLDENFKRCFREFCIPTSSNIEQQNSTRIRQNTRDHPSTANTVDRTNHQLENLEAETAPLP
Property Measured: pEC50
Scale: negative log10 of molar concentration, which is what pEC50 denotes.

Guide cases for pEC50, answers given:
{"Molecule Smiles": "CN(C(=O)Cc1ccccc1)[C@@H]1C[C@]23CCN(CC4CC4)[C@H](Cc4ccc(O)cc42)[C@]32CC[C@@H]1O2", "Reported": 8.15}
{"Molecule Smiles": "CN(C(=O)c1ccccc1)[C@@H]1C[C@]23CCN(CC4CC4)[C@H](Cc4ccc(O)cc42)[C@]32CC[C@@H]1O2", "Reported": 8.33}
{"Molecule Smiles": "O=C(Cc1ccccc1)N[C@@H]1C[C@]23CCN(CC4CC4)[C@H](Cc4ccc(O)cc42)[C@]32CC[C@@H]1O2", "Reported": 8.03}

Now for another entry.
Exercise: If you can, please state the reported pEC50 value of "CN(C(=O)CCc1ccccc1)[C@@H]1C[C@]23CCN(CC4CC4)[C@H](Cc4ccc(O)cc42)[C@]32CC[C@@H]1O2" .
Key: 8.25

Recorded values, source ChEMBL document CHEMBL5143548.
